System: KM12 colon
Test: NCI-60 one-dose screen, 48 h
Settings: 10 µM unless noted
About 83,000 compounds went through this panel and 20% of them were active in at least one assay; those are over-represented in the sample as a whole. Active and inactive are the calls of the source. How the source made its calls: active means growth percent below 10; inactive means the rest.
Your answer must be one of the following: active, inactive

See these solved cases before continuing.
molecule=Nc1cccc2c(=S)c3ccccc3[nH]c12 group_label=inactive
molecule=O=C(Nc1ccc(Cl)c(Cl)c1)OCn1ncc2ccc([N+](=O)[O-])cc21 group_label=inactive
molecule=COc1cc(/C=C2\C(=O)N(c3c(Cl)cccc3Cl)c3ccccc32)cc(OC)c1O group_label=inactive

In: # outcome recorded in this test, key = O=c1[nH]c(-c2ccncc2)nc2sc3c(c12)CCCCCC3
Out: inactive

In: # outcome recorded in this test, key = COc1cccc(Nc2nc(NCCO)c3ccccc3n2)c1
Out: inactive

In: # outcome recorded in this test, key = N#Cc1c(O)c2c(c(O)c1C#N)C(=O)c1ccccc1C2=O
Out: inactive

In: # outcome recorded in this test, key = FC(F)(F)c1cc(CNc2nc(Cl)ncc2Br)cc(C(F)(F)F)c1
Out: inactive

In: # outcome recorded in this test, key = CSC1=CC(=O)c2ccccc2C1=O
Out: inactive

In: # outcome recorded in this test, key = O=C1/C(=C/c2ccc(Cl)cc2)N=C(c2ccccc2)N1CCc1cccs1
Out: inactive

In: # outcome recorded in this test, key = Cc1ccc(S(=O)(=O)N2CCc3ccc(O)c4c3C2Cc2ccc3c(c2-4)OCO3)cc1 (stereo not drawn)
Out: inactive

In: # outcome recorded in this test, key = O=C1CN2CCC1C/C2=C\c1ccnc2c(Cl)cccc12 (stereo not drawn)
Out: inactive

In: # outcome recorded in this test, key = Cc1nn(-c2ccccc2)c2nc3nc4c(c(N)c3c(-c3ccc(Cl)cc3)c12)CCCC4
Out: inactive

In: # outcome recorded in this test, key = O=c1ccc2ccccc2o1
Out: inactive

In: # outcome recorded in this test, key = COc1ncnc2c1ncn2C/C(Br)=C(\Br)CCl
Out: active

In: # outcome recorded in this test, key = CCCCc1ccc(C(O)(CCN2CC3CCC(CC3)C2)c2ccccc2)cc1 (stereo not drawn)
Out: inactive

In: # outcome recorded in this test, key = O=C(CC(O)c1ccccc1)Nc1ccccn1 (stereo not drawn)
Out: inactive

In: # outcome recorded in this test, key = CN(C)c1ccc(/C=C(\C#N)c2cc3ccccc3n2C)cc1
Out: inactive

In: # outcome recorded in this test, key = NC(=O)c1cc(Cl)ccc1NC(=O)COc1ccccc1
Out: inactive

In: # outcome recorded in this test, key = Cc1ccccc1-n1nnc(C(=O)Nc2ccc(-c3ccccc3)cn2)c1C
Out: inactive

In: # outcome recorded in this test, key = O=c1nc(NO)[nH]c(=O)n1Cc1ccccc1
Out: inactive

In: # outcome recorded in this test, key = O=[N+]([O-])c1ccc(O)c2ncccc12
Out: inactive

In: # outcome recorded in this test, key = COC(=O)[C@H]1CCCN1C(=O)[C@H]1CCCN1C(=O)[C@@H](Cc1c[nH]c2ccccc12)NC(=S)Nc1cc(C(F)(F)F)cc(C(F)(F)F)c1
Out: inactive

In: # outcome recorded in this test, key = O=c1onc(-c2ccccc2)c2ccccc12
Out: inactive

====

Tested on: MOLT-4 leukemia
Assay: NCI-60 one-dose screen, 48 h (100 = growth as untreated, 0 = no growth, -100 = all killed)
Settings: 10 µM unless noted
Description: Growth inhibition of the MOLT-4 human tumor cell line is measured as a screen for anti-cancer activity. Cells are grown in 96 well plates and exposed to the test compound for 48 hours. Compounds are tested at a single concentration, which is 10^-5 M for most compounds. The reported endpoint is percent growth (GI% or GIPRCNT), where numbers from 0 - 100% represent growth inhibition, and numbers from -100% - 0 represent cell death. For example, a value of 40 represents 60% growth inhibition. […]
This is part of a sample that, as a whole, favours compounds with a hit. Of some 83,000 tested, about 20% had one in any assay.
Measurement type: growth (%)
// units = %; emit number, no label

compound=Clc1ccc(Nc2ccnc(N3CCN(c4ccnc5cc(Cl)ccc45)CC3)n2)cc1 measurement_type=growth observed_result=31.9

In: What value of measured growth is listed for CC(C)N1CCN(c2ccc(OC[C@H]3CO[C@](Cn4cncn4)(c4ccc(Cl)cc4Cl)O3)cc2)CC1 ?
Out: 86.2

In: What value of measured growth is listed for CCOC(=O)c1cnn(CC(O)c2ccc(F)cc2)c1NC(=O)Nc1ccccc1F (stereo not given) ?
Out: 91.8

In: What value of measured growth is listed for O=c1oc2ccccc2cc1-c1csc(N=Nc2c(O)[nH]c3ccc(Cl)cc23)n1 ?
Out: 105

In: What value of measured growth is listed for CCCN1CCN(c2ccc3nc(-c4ccc5nc(-c6ccc(C(F)(F)F)cc6)[nH]c5c4)[nH]c3c2)CC1 ?
Out: -38.6

====

Test system: SK-MEL-28 melanoma
Experiment: NCI-60 one-dose screen, 48 h
Conditions: 10 µM unless noted
Compounds without any hit were thinned out: in the full panel of roughly 83,000, 20% have a hit. Active and inactive are the calls of the source. The calls were made as follows: active = growth percent below 10; inactive = the rest.
Your answer must be one of the following: y (active), n (inactive)

molecule=COc1cc(/C=C/C(=O)C(=Cc2ccc(F)c(F)c2)C(=O)/C=C/c2ccc(O)c(OC)c2)ccc1O measured_on="SK-MEL-28 melanoma" group_label=n

In: # outcome recorded in this test, key = Cn1cc(C(=O)NCCC(=N)N)cc1NC(=O)CN=C(N)N
Out: n

In: # outcome recorded in this test, key = CC1CCCCN1S(=O)(=O)c1ccc(CN=C=S)cc1 (stereo unspecified)
Out: n

In: # outcome recorded in this test, key = O=c1[nH]c(=S)[nH]c(=O)n1Cc1cccc2ccccc12
Out: n

In: # outcome recorded in this test, key = CN1CCN(c2ccc3nc(-c4ccc5nc(-c6ccc(C(F)(F)F)cc6)[nH]c5c4)[nH]c3c2)CC1
Out: n

In: # outcome recorded in this test, key = COc1nc2c(cc1S(=O)(=O)c1ccccc1)CCc1c-2cnn1-c1ccccc1
Out: n

====

Test system: SN12C renal
Assay: NCI-60 one-dose screen, 48 h (100 = growth as untreated, 0 = no growth, -100 = all killed)
Details: 10 µM unless noted
The panel holds about 83,000 compounds, 20% with a hit somewhere; the sample as a whole holds those more often.
If the reported growth equals or exceeds 90%, assign Condition met. If not, assign Condition not met.

See these solved cases before continuing.
chem_smiles=Cn1c2ccccc2c2nn(Cc3ccccc3)c(=O)nc21 group_label="Condition met"
chem_smiles=CCCCCCCC/C=C\CCCCCCCCOc1cccc(CC(=O)NCC[N+]2(C)CCCC2)c1 group_label="Condition not met"
chem_smiles=O=C1Nc2ccc(Cl)cc2/C1=N/N=C(c1ccccc1)c1ccccc1 group_label="Condition met"
chem_smiles=O=C(O)C[C@H](O)C[C@H](O)/C=C/c1c(C2CC2)nc2ccccc2c1-c1ccc(F)cc1 group_label="Condition not met"

In: Hello, I need to know if Cn1c2ccccc2c2nn(C(=O)c3ccccc3)c(=O)nc21 has measured growth not below 90%. Thanks!
Out: Condition met

====

System: SK-MEL-28 melanoma
Assay: NCI-60 one-dose screen, 48 h (100 = growth as untreated, 0 = no growth, -100 = all killed)
Details: 10 µM unless noted
This is part of a sample that, as a whole, favours compounds with a hit. Of some 83,000 tested, about 20% had one in any assay. Active and inactive are the calls of the source. How the source made its calls: active means growth percent below 10; inactive means the rest.
Measurement type: growth

Past entries and their recorded results:
compound=COc1ccc(-c2c(-c3cc4c(c(OC)c3OC)OCO4)noc2N)cc1 observed_result="49.7% (inactive)"
compound=COc1cccc(OC)c1OC(=O)c1ccccc1 observed_result="98.2% (inactive)"
compound=O=C(N/N=C/c1ccc(F)cc1)c1[nH]c2ccc(I)cc2c1-c1ccccc1 observed_result="67.9% (inactive)"
compound=CCN(CC)c1ccc2c(c1)OS(=O)(=O)N=C2 observed_result="105% (inactive)"
compound="O=C(NCc1ccc(F)cc1)C1CN(c2ccc(Cl)cc2)N(c2ccc(Cl)cc2)C1=O (stereo not given)" observed_result="74.9% (inactive)"
compound="CCOC(=O)c1[nH]c2cc(Cl)ccc2c1[C@@H](C(=O)NC(C)(C)C)N(CC)C(=O)CCCCC#Cc1cccc2c1CN(C1CCC(=O)NC1=O)C2=O (stereo not given in full)" observed_result="29.6% (inactive)"
compound=CN1CCN(c2nc(-c3ccncc3)nc3sc4c(c23)CCCCCC4)CC1 observed_result="83.5% (inactive)"
compound=FCOC(C(F)(F)F)C(F)(F)F observed_result="126% (inactive)"
compound="CCCCOC(=O)C1OC(Oc2ccc3c(C)cc(=O)oc3c2)[C@@H](OC(C)=O)C(OC(C)=O)C1OC(C)=O (stereo not given in full)" observed_result="108% (inactive)"

Turning now to a further compound:
In: Value wanted: growth (SK-MEL-28 melanoma) of entry COc1cc(-c2nc(SC(C)C)nc(Nc3cccc(C)c3)c2C#N)cc(OC)c1OC
Out: 107% (inactive)
